pIC50: −log10 of the molar value.
Literature roundup of Tyrosine-protein kinase JAK2 (Homo sapiens, UniProt O60674) data, read-out pIC50.

N#Cc1cc(-c2ncnc(Nc3ccc(N4CCN(C5COC5)CC4)cc3)n2)ccc1O[C@H]1CCNC[C@H]1F; 6.39
Cn1c(Nc2ccc(F)cc2F)nc2ccc(Oc3ccc(O)nc3)cc21; < 5.00
CN(c1ncnc2[nH]ccc12)C1CC2(C1)CN(C(=O)c1ccc(I)cc1)C2; 6.00 to 7.00
Cn1cc(-c2cc3nccn3c(-c3cnn(C(CC#N)c4cncc(Br)c4)c3)n2)cn1 (centres unmarked); 7.00 to 8.00
Cc1cnc2nc1NCCCCCNC(=O)c1c(F)cc(cc1F)-c1cnc(F)c(c1)N2; 6.00 to 7.00
CN1CCC(N2CCN3c4ccc(Nc5ncc(C(N)=O)c(NC6CC6)n5)cc4OC[C@H]3C2)CC1; > 7.70
C[C@@H]1C[C@H](Oc2ccc(-c3ncnc(Nc4ccc(N5CCN(C6COC6)CC5)cc4)n3)cc2C#N)CCN1C(=O)[C@@H](C)O; ≤ 6.00

Now, please, on to the next compound.
In: Please indicate pIC50 recorded for Cn1nccc1S(=O)(=O)N1CCC(N2CC(CC#N)(n3cc(-c4ncnc5[nH]ccc45)cn3)C2)CC1
Out: 7.30 to 8.00
